Test system: Staphylococcus aureus
Experiment: Antimicrobial activity against methicillin-susceptible Staphylococcus aureus Smith by NCCLS method
Assay type: functional
Recorded MIC for the following compounds
Write the value in µg/mL as a bare number.

// MIC lookup, key: C=C[C@]1(C)C[C@@H](OC(=O)CN2CCN(C(=O)CCn3cnc4c(N5CCC(NC)C5)ncnc43)CC2)[C@]2(C)[C@H](C)CC[C@]3(CCC(=O)[C@@H]32)[C@@H](C)[C@@H]1O.Cl (some centres undefined)
0.25

====

Recorded ED50 for the following compounds
Test system: Staphylococcus aureus
Assay: Antimicrobial activity against methicillin-susceptible Staphylococcus aureus infected iv dosed mouse assessed as survival rate after 1 hr of infection
Format: functional
Write the value in mg/kg as a bare number.

// ED50 lookup, key: C=C[C@]1(C)C[C@@H](OC(=O)CN2CCCN(C(=O)CCn3cnc4c(N5CCC(N)C5)ncnc43)CC2)[C@]2(C)[C@H](C)CC[C@]3(CCC(=O)[C@@H]32)[C@@H](C)[C@@H]1O.Cl.Cl (stereo not given in full)
2.51

// ED50 lookup, key: C=C[C@]1(C)C[C@@H](OC(=O)CN2CCN(C(=O)CCn3cnc4c(N5CCC(CNC)C5)ncnc43)[C@@H](C)C2)[C@]2(C)[C@H](C)CC[C@]3(CCC(=O)[C@@H]32)[C@@H](C)[C@@H]1O.Cl.Cl (stereo not given in full)
1.2

// ED50 lookup, key: C=C[C@]1(C)C[C@@H](OC(=O)CN2CCN(C(=O)CCn3cnc4c(N5CCC(N)C5)ncnc43)C[C@@H]2C)[C@]2(C)[C@H](C)CC[C@]3(CCC(=O)[C@@H]32)[C@@H](C)[C@@H]1O.Cl (stereo not given in full)
1.28

// ED50 lookup, key: C=C[C@]1(C)C[C@@H](OC(=O)CN2CCN(C(=O)CCn3cnc4c(N5CCC(N)C5)ncnc43)C(CC)C2)[C@]2(C)[C@H](C)CC[C@]3(CCC(=O)[C@@H]32)[C@@H](C)[C@@H]1O.Cl.Cl (stereo not given in full)
2.95

// ED50 lookup, key: C=C[C@]1(C)C[C@@H](OC(=O)CN2CCN(C(=O)CCn3cnc4c(N5CCC(N)C5)ncnc43)CC2C)[C@]2(C)[C@H](C)CC[C@]3(CCC(=O)[C@@H]32)[C@@H](C)[C@@H]1O.Cl.Cl (stereo not given in full)
1.42

====

Recorded ED50 for the following molecules
System: Staphylococcus aureus
Assay: Antimicrobial activity against methicillin-susceptible Staphylococcus aureus infected iv dosed mouse assessed as survival rate after 1 hr of infection
Assay type: functional
Write the value in mg/kg as a bare number.

Recorded results for 4 molecules are shown here.
| Molecule | ED50, mg/kg |
| --- | --- |
| C=C[C@]1(C)C[C@@H](OC(=O)CN2CCN(C(=O)CCn3cnc4c(N5CCC(N)CC5)ncnc43)CC2)[C@]2(C)[C@H](C)CC[C@]3(CCC(=O)[C@@H]32)[C@@H](C)[C@@H]1O.Cl.Cl | 0.97 |
| C=C[C@]1(C)C[C@@H](OC(=O)CN2CCN(C(=O)CCn3cnc4c(N5CCC(CN)CC5)ncnc43)CC2)[C@]2(C)[C@H](C)CC[C@]3(CCC(=O)[C@@H]32)[C@@H](C)[C@@H]1O.Cl.Cl | 1.51 |
| C=C[C@]1(C)C[C@@H](OC(=O)CN2CCN(C(=O)CCn3cnc4c(N5CCC(NC)C5)ncnc43)CC2)[C@]2(C)[C@H](C)CC[C@]3(CCC(=O)[C@@H]32)[C@@H](C)[C@@H]1O.Cl (stereo not given in full) | 1.3 |
| C=C[C@]1(C)C[C@@H](OC(=O)CN2CCN(C(=O)CCn3cnc4c(N5CCC(N)C5)ncnc43)[C@H](C)C2)[C@]2(C)[C@H](C)CC[C@]3(CCC(=O)[C@@H]32)[C@@H](C)[C@@H]1O.Cl.Cl (stereo not given in full) | 2.21 |

Below: the item to evaluate.
Fill in the recorded ED50 for this molecule, with Staphylococcus aureus as test system: "C=C[C@]1(C)C[C@@H](OC(=O)CN2CCN(C(=O)CCn3cnc4c(N5CC[C@@H](N)C5)ncnc43)[C@@H](C)C2)[C@]2(C)[C@H](C)CC[C@]3(CCC(=O)[C@@H]32)[C@@H](C)[C@@H]1O.Cl.Cl"
1.56

====

Tested on: Staphylococcus aureus
Assay: Antimicrobial activity against methicillin-resistant Staphylococcus aureus KMP9
Type: functional
Recorded MIC for the following compounds
Write the value in µg/mL as a bare number.

| Compound | Unit text | MIC |
| --- | --- | --- |
| C=C[C@]1(C)C[C@@H](OC(=O)CN2CCN(C(=O)CCn3cnc4c(N5CCC(N(C)C)C5)ncnc43)CC2)[C@]2(C)[C@H](C)CC[C@]3(CCC(=O)[C@@H]32)[C@@H](C)[C@@H]1O.Cl.Cl (stereo not given in full) | µg/mL | 0.25 |
| C=C[C@]1(C)C[C@@H](OC(=O)CN2CCN(C(=O)CCn3cnc4c(N5CCC(CNC)C5)ncnc43)[C@@H](C)C2)[C@]2(C)[C@H](C)CC[C@]3(CCC(=O)[C@@H]32)[C@@H](C)[C@@H]1O.Cl.Cl (stereo not given in full) | µg/mL | 1 |
| C=C[C@]1(C)C[C@@H](OC(=O)CN2CCN(C(=O)CCn3cnc4c(N5CCC(N)C5)ncnc43)C(C)C2)[C@]2(C)[C@H](C)CC[C@]3(CCC(=O)[C@@H]32)[C@@H](C)[C@@H]1O.Cl.Cl (stereo not given in full) | µg/mL | 0.25 |
| C=C[C@]1(C)C[C@@H](OC(=O)CN2CCN(C(=O)CCn3cnc4c(N5CCC(NC)C5)ncnc43)CC2)[C@]2(C)[C@H](C)CC[C@]3(CCC(=O)[C@@H]32)[C@@H](C)[C@@H]1O.Cl (stereo not given in full) | µg/mL | 1 |

// MIC lookup, key: C=C[C@]1(C)C[C@@H](OC(=O)CN2CC(C)N(C(=O)CCn3cnc4c(N5CCC(N)C5)ncnc43)C(C)C2)[C@]2(C)[C@H](C)CC[C@]3(CCC(=O)[C@@H]32)[C@@H](C)[C@@H]1O.Cl.Cl (stereo not given in full)
0.125

====

System: Staphylococcus aureus
Experiment: Antimicrobial activity against methicillin-resistant Staphylococcus aureus KMP9
Type: functional
Outcome measure: MIC (µg/mL)
Write the value in µg/mL as a bare number.

| Molecule | Data value |
| --- | --- |
| C=C[C@]1(C)C[C@@H](OC(=O)CN2CCN(C(=O)CCn3cnc4c(N5CCC(N)C5)ncnc43)[C@H](C)C2)[C@]2(C)[C@H](C)CC[C@]3(CCC(=O)[C@@H]32)[C@@H](C)[C@@H]1O.Cl.Cl (some centres not stated) | 0.5 |
| C=C[C@]1(C)C[C@@H](OC(=O)CN2CCN(C(=O)CCn3cnc4c(N5CCC(N)C5)ncnc43)C[C@H]2C)[C@]2(C)[C@H](C)CC[C@]3(CCC(=O)[C@@H]32)[C@@H](C)[C@@H]1O.Cl.Cl (some centres not stated) | 0.5 |
| C=C[C@]1(C)C[C@@H](OC(=O)CN2CCN(C(=O)CCn3cnc4c(N5CCC(N)CC5)ncnc43)[C@@H](C)C2)[C@]2(C)[C@H](C)CC[C@]3(CCC(=O)[C@@H]32)[C@@H](C)[C@@H]1O.Cl.Cl | 0.5 |
| C=C[C@]1(C)C[C@@H](OC(=O)CN2CCN(C(=O)CCn3cnc4c(N5CCC(N)C5)ncnc43)CC2)[C@]2(C)[C@H](C)CC[C@]3(CCC(=O)[C@@H]32)[C@@H](C)[C@@H]1O.Cl.Cl (some centres not stated) | 1 |

// MIC lookup, key: "C=C[C@]1(C)C[C@@H](OC(=O)CN2CCN(C(=O)CCn3cnc4c(N5CCNCC5)ncnc43)CC2)[C@]2(C)[C@H](C)CC[C@]3(CCC(=O)[C@@H]32)[C@@H](C)[C@@H]1O.Cl.Cl"
0.25

// MIC lookup, key: C=C[C@]1(C)C[C@@H](OC(=O)CN2CCN(C(=O)CCn3cnc4c(N5CCC(N)C5)ncnc43)[C@@H](C)C2)[C@]2(C)[C@H](C)CC[C@]3(CCC(=O)[C@@H]32)[C@@H](C)[C@@H]1O.Cl.Cl (some centres not stated)
0.25

// MIC lookup, key: "C=C[C@]1(C)C[C@@H](OC(=O)CN2CCN(C(=O)CCn3cnc4c(N5CCC(N)CC5)ncnc43)CC2)[C@]2(C)[C@H](C)CC[C@]3(CCC(=O)[C@@H]32)[C@@H](C)[C@@H]1O.Cl.Cl"
1

// MIC lookup, key: C=C[C@]1(C)C[C@@H](OC(=O)CN2CCN(C(=O)CCn3cnc4c(N5CCC(N)C5)ncnc43)C(C)(C)C2)[C@]2(C)[C@H](C)CC[C@]3(CCC(=O)[C@@H]32)[C@@H](C)[C@@H]1O.Cl.Cl (some centres not stated)
0.125

// MIC lookup, key: C=C[C@]1(C)C[C@@H](OC(=O)CN2CCCN(C(=O)CCn3cnc4c(N5CCC(N)C5)ncnc43)CC2)[C@]2(C)[C@H](C)CC[C@]3(CCC(=O)[C@@H]32)[C@@H](C)[C@@H]1O.Cl.Cl (some centres not stated)
1

// MIC lookup, key: C=C[C@]1(C)C[C@@H](OC(=O)CN2CCN(C(=O)CCn3cnc4c(N5CCC(N)C5)ncnc43)CC2C)[C@]2(C)[C@H](C)CC[C@]3(CCC(=O)[C@@H]32)[C@@H](C)[C@@H]1O.Cl.Cl (some centres not stated)
0.5

// MIC lookup, key: "C=C[C@]1(C)C[C@@H](OC(=O)CN2CCN(C(=O)CCn3cnc4c(N5CC[C@@H](N)C5)ncnc43)[C@@H](C)C2)[C@]2(C)[C@H](C)CC[C@]3(CCC(=O)[C@@H]32)[C@@H](C)[C@@H]1O.Cl.Cl"
0.25

// MIC lookup, key: "C=C[C@]1(C)C[C@@H](OC(=O)CN2CCN(C(=O)CCn3cnc4c(N5CC[C@H](CNC)C5)ncnc43)CC2)[C@]2(C)[C@H](C)CC[C@]3(CCC(=O)[C@@H]32)[C@@H](C)[C@@H]1O.Cl.Cl"
2
